// read-out IC50, gathered for PIK3CA (human) from published studies

Nc1nc2cc(-c3ccc4ncc(C(=O)N5CCC(F)(F)C5)n4c3)ccc2o1; < 100 nM
C=CC(=O)Nc1cc(OC)cc(-c2csc3c(=O)cc(N4CCOCC4)oc23)c1; < 1000 nM
Cc1cc(-c2ccc3oc(N)nc3c2)cc2c(C(=O)N3CCOCC3)cnn12; < 1000 nM
Cc1ccccc1-n1c(Cn2nc(-c3ccc4nc(N)ncc4c3)c3c(N)ncnc32)cc2cccc(C)c2c1=O; < 100 nM

Reported IC50, compound `COc1ncc(-c2ccc3nccc(-c4ccc(CN(CCO)CCO)cc4)c3c2)cc1NS(=O)(=O)c1ccc(F)cc1F` : ____
1.3 nM

----------
Reported pIC50 on PIK3CA (human) for assorted molecules, compiled from publications.
pIC50: −log10 of the molar value.

CN1CCN(c2ccc(NC(=O)Nc3ccc4c(c3)C(=O)/C(=C/c3cn(C)c5nccc(N6CC7CCC(C6)O7)c35)O4)cc2)CC1; 5.64
CN1CCN(C(=O)C2CCN(c3ccnc4c3c(/C=C3\Oc5cccc(O)c5C3=O)cn4C)CC2)CC1; 7.41
N#CC1CCN(C(=O)N2CCOc3ccc(-c4cnc5nc(N)[nH]c5c4)cc3C2)CC1; ≥ 7.12
O=c1cc(Oc2cccc(NCc3ccco3)c2)c2ccccc2[nH]1; 5.33
Cn1cc(/C=C2\Oc3cc(O)cc(O)c3C2=O)c2c(-c3cccc(NS(C)(=O)=O)c3)ccnc21; 7.72
Cn1cc(/C=C2\Oc3ccc(NC(=O)Nc4ccc(N5CCOCC5)cc4)cc3C2=O)c2c(N3CC4CCC(C3)O4)ccnc21; 5.24
Cc1ccn2ncc(C(=O)N[C@@H](C)c3cc4cccc(Cl)c4c(=O)n3-c3ccccc3)c2n1; < 5.00
C[C@H](Nc1ccnn2ccnc12)c1cc2cccc(C(F)(F)F)c2c(=O)n1-c1cccc(F)c1; 5.00 to 6.00

Return pIC50 measured with PIK3CA (human) given this molecule: `COC(=O)Nc1nc2ccc(-c3ccc4c(c3)CN(C(=O)N3CCC(O)(C(F)(F)F)CC3)CCO4)cc2[nH]1`
6.30 to 6.70

Hi! What's the reported pIC50 for `C[C@H](Nc1ccnc2ccnn12)c1cc2cccc(Cl)c2c(CCN2CCOCC2)n1` on PIK3CA (human)?
> 5.00

Hi! What's the reported pIC50 for CCNc1nc2ccc(-c3ccc4c(c3)CN(C(=O)N3CCC(=O)CC3c3cccc(F)c3)CCO4)cc2[nH]1 (stereo not shown) on PIK3CA (human)?
≥ 7.12

Notebook: pull reported pIC50 for PIK3CA (human), entry `COc1ccc(-c2ccnc3c2c(/C=C2\Oc4cc(O)cc(O)c4C2=O)cn3C)cc1S(=O)(=O)N1CCCC1`
8.10

Identify the measured pIC50 of `COc1ncc(-c2cnc3[nH]cc(C(=O)c4c(F)ccc(NS(=O)(=O)CC(F)(F)F)c4F)c3c2)cn1` for PIK3CA (human).
≥ 5.00

Notebook: pull reported pIC50 for PIK3CA (human), entry `CC(=O)NCCOc1nc([C@H](C)Nc2ncnc3[nH]cnc23)cc2cccc(Cl)c12`
> 5.00

Missing value: pIC50, PIK3CA (human), entry `Cc1cccc2cc(Cn3nc(-c4cccc(O)c4)c4c(N)ncnc43)n(-c3ccccc3)c(=O)c12` . Fill in?
< 5.00

Report pIC50 for `Cc1csc2nc(Cn3nc(-c4cc(O)cc(F)c4)c4c(N)ncnc43)n(-c3ccccc3F)c(=O)c12` tested on PIK3CA (human).
< 5.00

Provide value of pIC50 for this record tested with PIK3CA (human): `O=c1cc(Oc2cccc(-c3ccc(N4CCOCC4)nc3)c2)c2ccccc2[nH]1`
< 5.00

Lab note: need pIC50 for `C[C@H]1COCCN1c1nc(-c2cnc(N)nc2)nc2ccc(-c3cccc(NS(=O)(=O)CCCF)c3F)nc12` on PIK3CA (human), anyone have it?
7.00 to 9.00

Report pIC50 for `Nc1nc2cc(-c3ccc4ncc(C#CC5CC5)n4c3)ccc2o1` tested on PIK3CA (human).
> 7.00

Lookup: pIC50 / PIK3CA (human) / Cc1cccc2cc(C(C)Nc3ncnc4[nH]cnc34)n(-c3cc(F)cc(F)c3)c(=O)c12 (stereo not shown)
< 5.00

Request body: readout pIC50, system PIK3CA (human), query `Nc1nc2cc(-c3ccc4ncc(C(=O)N5CCN(CCO)CC5)n4c3)ccc2o1` . Return the value.
> 7.00

Param readout= pIC50; system= PIK3CA (human); entry= `Nc1nc2ncc(-c3ccc4c(c3)CN(C(=O)N3CCC(CF)CC3)CCO4)cc2[nH]1` ; returns value.
≥ 7.12

Requested read-out pIC50, target or system PIK3CA (human), entry Cc1nc(N)ncc1-c1nc(N2CCOCC2)c2nc(N3CCC(N(C)C)C3)n(CC3CC3)c2n1 (stereo not shown)
7.30 to 7.70

API: value(readout= pIC50, system= PIK3CA (human), query= `O=c1cc(Oc2cccc(NCc3cnc4ccccc4c3)c2)c2ccccc2[nH]1` )
< 5.00

Can you look up pIC50 on PIK3CA (human) for `CNC(=O)Nc1ccc(-c2nc(N3CCOCC3)nc3c2cnn3C2CCN(C(=O)OC)CC2)cc1` ?
< 7.00

Report pIC50 for `COc1ncc(-c2ccc3nccc(-c4ccc(CN5CCN(CCO)CC5)cc4)c3c2)cc1NS(=O)(=O)c1ccc(F)cc1F` tested on PIK3CA (human).
8.92

What reported pIC50 corresponds to `C[C@H](Nc1ncnc(N)c1C#N)c1cc2cccc(C(F)(F)F)c2c(=O)n1-c1cccc(F)c1` on PIK3CA (human)?
5.00 to 6.00

----------
pIC50: −log10 of the molar value.
# merged literature set: pIC50 with PIK3CA (human)

Example entries begin here.
Cn1cc(C=C2Oc3ccc(NC(=O)Nc4cccnc4)cc3C2=O)c2c(N3CCC(C(=O)N4CC=CC4)CC3)ccnc21; 5.25
C[C@H](Nc1ncnc2scnc12)c1cc2cccc(Cl)c2c(C(=O)NC2CCOC2)n1 (stereo partly shown); < 5.00
COc1ccc(-c2ccnc3c2c(/C=C2\Oc4cccc(O)c4C2=O)cn3C)cn1; 7.21

Give pIC50 (PIK3CA (human)) of the following molecule: `O=c1cc(Oc2cccc(-c3cccc(NCc4cccnc4)c3)c2)c2ccccc2[nH]1`
< 5.00

So what pIC50 did `Cc1cc(C)n2nc(N)c(C(=O)N[C@@H](C)c3cc4cccc(Cl)c4c(=O)n3-c3ccccc3)c2n1` get with PIK3CA (human)?
5.00 to 6.00

Request body: readout pIC50, system PIK3CA (human), query `COc1ccccc1-n1c(Cn2nc(Br)c3c(N)ncnc32)nc2scc(C)c2c1=O` . Return the value.
< 5.00

Item: CN(C)C1CCN(C(=O)c2ccc(NC(=O)Nc3ccc(Nc4nc(Nc5ccc(C(N)=O)cc5)c5cnn(C)c5n4)cc3)cc2)C1 (stereo not shown) Test system: PIK3CA (human) Read-out: pIC50 Value: ?
9.52

Form: Entry = `C[C@H](Nc1ncnc2scnc12)c1cc2scc(C(F)(F)F)c2c(=O)n1-c1ccccc1` | System = PIK3CA (human) | pIC50 = ____
5.00 to 6.00

Request - read-out pIC50 | tested on PIK3CA (human) | molecule `C[C@H](NC(=O)c1c(N)nn2cccnc12)c1c(C#N)c2cccc(F)c2c(=O)n1-c1ccccc1`
5.00 to 6.00

// fetch PIK3CA (human) pIC50 for `CNC(=O)c1cccc(-c2ccc3c(c2)CN(c2nc(C)nc4cc(OC)ccc24)CCO3)c1`
≤ 5.70

# query: pIC50 | item `Nc1nc2cc(-c3ccc4ncc(N5CCN(CC6CC6)CC5)nc4c3)ccc2o1` | system: PIK3CA (human)
> 7.00

Hi! What's the reported pIC50 for Nc1ncc(-c2nc(N3CCOCC3)c3nc(N4CCC(S(=O)(=O)c5ccccc5)C4)n(CC4CC4)c3n2)cn1 (stereo not shown) on PIK3CA (human)?
> 8.00

Field: pIC50 (PIK3CA (human)). Entry: `Nc1nc2cc(-c3ccc4ncc(N5CCOCC5)nc4n3)ccc2o1`
> 7.00

I'm curious: which pIC50 was measured for `Cc1cccc2cc(Cn3nc(I)c4c(N)ncnc43)n(-c3ccccc3OCCN3CCOCC3)c(=O)c12` tested on PIK3CA (human)?
< 5.00

Reported pIC50 for PIK3CA (human), given `CCCS(=O)(=O)Nc1ccc(F)c(C(=O)c2c[nH]c3ncc(-c4cn[nH]c4)cc23)c1F` ?
≥ 5.00

PIK3CA (human) / pIC50 / `CC(C)Oc1ccc(-c2cnc(N)c(C(=O)N[C@@H](C)c3cc4cccc(Cl)c4c(=O)n3-c3ccccc3)n2)cc1F` : value?
5.00 to 6.00

----------
Consider the following pIC50 data for PIK3CA (human) (UniProt P42336), collected from several reports.
pIC50: −log10 of the molar value.

Completed entries (count: 2):
CN1CCN(CCCn2cc(C=C3Oc4cc(O)cc(O)c4C3=O)c3cccnc32)CC1; 5.23
CC(C)NCCOc1ncc(-c2cc3c(cc2F)ncc2c3[C@]3(C[C@@H](OCc4ccccc4)C3)C(=O)N2C)cc1NS(C)(=O)=O; < 7.00

Report pIC50 for `Nc1nc2cc(-c3ccc4ncc(N5CC(N6CCOCC6)C5)nc4c3)c(Cl)cc2o1` tested on PIK3CA (human) (UniProt P42336).
> 6.00

Kindly state the measured pIC50 obtained for `N#CC1(C(=O)Nc2cccc(-c3cnc4c(N5CCOCC5)nc(-c5cnc(N)nc5)nc4c3)c2)CC1` with PIK3CA (human) (UniProt P42336).
> 7.30

API: value(readout=pIC50, system=PIK3CA (human) (UniProt P42336)) for record `C[C@H](Nc1ncnc2[nH]cnc12)c1cc2cccc(-c3cnn(C)c3)c2c(C(=O)N2CCOCC2)n1`
< 5.00

Enter reported pIC50 observed with PIK3CA (human) (UniProt P42336) for `C[C@@H]1COCCN1c1nc(N2CCOC[C@@H]2C)c2nc(-c3cccc4[nH]ccc34)[nH]c2n1`
5.30
